Reported values of Receptor downregulation, (EC50) (pM) for individual entries
# measured_target: human CD33 on primary human dendritic cells (human, UniProt P20138 18-364)
# Sequence (P20138 18-364): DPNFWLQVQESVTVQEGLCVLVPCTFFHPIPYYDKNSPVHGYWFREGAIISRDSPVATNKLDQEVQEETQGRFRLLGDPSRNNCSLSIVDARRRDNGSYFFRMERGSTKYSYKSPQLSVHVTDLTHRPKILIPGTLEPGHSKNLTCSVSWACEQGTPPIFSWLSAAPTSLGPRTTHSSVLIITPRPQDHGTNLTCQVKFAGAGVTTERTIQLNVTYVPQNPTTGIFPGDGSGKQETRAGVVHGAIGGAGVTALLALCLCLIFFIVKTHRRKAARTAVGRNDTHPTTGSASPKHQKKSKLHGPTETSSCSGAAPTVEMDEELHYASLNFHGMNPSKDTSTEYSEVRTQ
# assay_procedure: cell-based or functional assay
Write the value in pM as a bare number.

Exercise: For anti-CD33 antibody 6C7H52 (antibody, V domains shown, VH/VL only) VH: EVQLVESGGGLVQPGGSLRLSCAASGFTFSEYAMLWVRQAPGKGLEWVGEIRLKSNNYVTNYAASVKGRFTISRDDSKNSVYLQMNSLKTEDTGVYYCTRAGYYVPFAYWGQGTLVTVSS VL: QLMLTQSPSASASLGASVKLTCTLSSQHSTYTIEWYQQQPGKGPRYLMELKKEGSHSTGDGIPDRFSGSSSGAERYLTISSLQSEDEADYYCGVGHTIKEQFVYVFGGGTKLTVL , write its Receptor downregulation, (EC50) (pM).
Solution: 47.7

Exercise: Complete the entry with Receptor downregulation, (EC50) (pM) for anti-CD33 antibody 6C7H32 (antibody, V domains shown, VH/VL only) VH: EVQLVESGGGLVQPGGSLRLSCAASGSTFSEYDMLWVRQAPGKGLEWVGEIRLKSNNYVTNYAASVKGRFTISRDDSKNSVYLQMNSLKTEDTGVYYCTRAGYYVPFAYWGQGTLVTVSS VL: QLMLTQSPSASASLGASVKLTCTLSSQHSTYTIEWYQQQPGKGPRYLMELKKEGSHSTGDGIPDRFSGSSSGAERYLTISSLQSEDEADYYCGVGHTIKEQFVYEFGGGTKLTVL
Solution: 47.2

Exercise: Quote Receptor downregulation, (EC50) (pM) reported for anti-CD33 antibody 6C7H42 (antibody, V domains shown, VH/VL only) VH: EVQLVESGGGLVQPGGSLRLSCAASGFTFSEYDMLWVRQAPGKGLEWVGEIRLKSNNYVTNYAASVKGRFTISRDDTKNSVYLQMNSLKTEDTGVYYCTRAGYYVPFAYWGQGTLVTVSS VL: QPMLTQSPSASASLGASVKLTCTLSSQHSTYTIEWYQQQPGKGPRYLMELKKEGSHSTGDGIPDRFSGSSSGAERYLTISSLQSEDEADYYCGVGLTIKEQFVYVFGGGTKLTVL please.
Solution: 39.4

Exercise: Kindly indicate its recorded Receptor downregulation, (EC50) (pM). Item: anti-CD33 antibody 6C7H40 (antibody, V domains shown, VH/VL only) VH: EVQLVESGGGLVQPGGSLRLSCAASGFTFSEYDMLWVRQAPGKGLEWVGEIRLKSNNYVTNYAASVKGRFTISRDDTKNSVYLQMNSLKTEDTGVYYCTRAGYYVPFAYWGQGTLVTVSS VL: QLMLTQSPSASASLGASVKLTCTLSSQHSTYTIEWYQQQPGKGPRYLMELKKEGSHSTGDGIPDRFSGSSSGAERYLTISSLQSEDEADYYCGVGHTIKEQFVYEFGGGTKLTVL
Solution: 37.2
